system-name: succinate dehydrogenase (Sus scrofa, UniProt A5GZW8+D0VWV4+Q007T0)
Construct: isolated from porcine hearts; from tissue; host or cells: porcine heart
Sequence (Q0QF01 43-664 partner): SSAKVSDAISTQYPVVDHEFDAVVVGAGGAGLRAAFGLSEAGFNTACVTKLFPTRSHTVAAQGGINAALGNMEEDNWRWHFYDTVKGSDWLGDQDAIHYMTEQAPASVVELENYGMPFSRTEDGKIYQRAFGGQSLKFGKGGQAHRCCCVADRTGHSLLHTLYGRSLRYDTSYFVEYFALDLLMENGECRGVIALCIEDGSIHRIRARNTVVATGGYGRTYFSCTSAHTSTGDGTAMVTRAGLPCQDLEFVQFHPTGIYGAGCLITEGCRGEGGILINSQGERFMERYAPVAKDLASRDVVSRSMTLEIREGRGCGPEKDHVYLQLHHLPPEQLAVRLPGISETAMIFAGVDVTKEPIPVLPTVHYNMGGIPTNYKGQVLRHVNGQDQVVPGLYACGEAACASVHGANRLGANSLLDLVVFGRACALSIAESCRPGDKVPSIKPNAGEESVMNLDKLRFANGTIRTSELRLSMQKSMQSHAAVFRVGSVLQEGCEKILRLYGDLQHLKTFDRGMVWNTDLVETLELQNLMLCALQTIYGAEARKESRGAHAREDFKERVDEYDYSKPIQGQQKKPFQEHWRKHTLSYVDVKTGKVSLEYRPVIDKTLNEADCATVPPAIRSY
Sequence (Q007T0 29-280): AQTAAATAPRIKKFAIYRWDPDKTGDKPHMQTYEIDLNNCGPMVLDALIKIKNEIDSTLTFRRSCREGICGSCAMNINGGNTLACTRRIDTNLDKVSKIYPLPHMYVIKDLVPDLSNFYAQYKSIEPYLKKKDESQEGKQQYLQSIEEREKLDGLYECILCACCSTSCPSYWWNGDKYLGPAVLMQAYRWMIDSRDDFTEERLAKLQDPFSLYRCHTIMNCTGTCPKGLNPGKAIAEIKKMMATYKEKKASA
Sequence (D0VWV4 30-169): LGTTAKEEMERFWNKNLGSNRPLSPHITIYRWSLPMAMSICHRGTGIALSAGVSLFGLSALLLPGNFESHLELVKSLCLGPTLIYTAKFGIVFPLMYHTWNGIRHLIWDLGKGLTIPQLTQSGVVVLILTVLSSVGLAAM
Sequence (A5GZW8 57-159 limits assumed): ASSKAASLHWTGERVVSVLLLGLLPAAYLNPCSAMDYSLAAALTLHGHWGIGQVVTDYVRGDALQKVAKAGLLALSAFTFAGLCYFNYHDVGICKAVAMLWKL
protocol: Enzyme activity assay, succinate dehydrogenase (DCIP reduction)
Assay type: biochemical, porcine
condition-notes: read-out: Inhibitors (10 μM, SQR)
reported-metric: inhibition at 10 µM

Solved entries:
[[record]]
molecule = "C=C(c1ccc(C#CC2CC2)cc1F)C(C)N(C(=O)c1c(C(F)F)nn(C)c1F)C1CC1 (centres unmarked)"
system_name = "succinate dehydrogenase (Sus scrofa, UniProt A5GZW8+D0VWV4+Q007T0)"
reported_metric = "inhibition at 10 µM"
observed_result = "> 90%"

[[record]]
molecule = "CC(C(=C(Cl)Cl)c1ccc(C(F)(F)F)cc1Cl)N(C(=O)c1c(C(F)F)nn(C)c1F)C1CC1 (centres unmarked)"
system_name = "succinate dehydrogenase (Sus scrofa, UniProt A5GZW8+D0VWV4+Q007T0)"
reported_metric = "inhibition at 10 µM"
observed_result = "> 90%"

[[record]]
molecule = "CC(C(=C(Cl)Cl)c1ccc(S(C)(=O)=O)cc1Cl)N(C(=O)c1c(C(F)F)nn(C)c1F)C1CC1 (centres unmarked)"
system_name = "succinate dehydrogenase (Sus scrofa, UniProt A5GZW8+D0VWV4+Q007T0)"
reported_metric = "inhibition at 10 µM"
observed_result = "> 90%"

[[record]]
molecule = "Cn1nc(C(F)F)c(C(=O)N(CC(=C(Cl)Cl)c2c(Cl)cccc2Cl)C2CC2)c1F"
system_name = "succinate dehydrogenase (Sus scrofa, UniProt A5GZW8+D0VWV4+Q007T0)"
reported_metric = "inhibition at 10 µM"
observed_result = "> 90%"

[[record]]
molecule = "CC(C(=C(Cl)Cl)c1cc(Cl)ccc1F)N(C(=O)c1c(C(F)F)nn(C)c1F)C1CC1 (centres unmarked)"
system_name = "succinate dehydrogenase (Sus scrofa, UniProt A5GZW8+D0VWV4+Q007T0)"
reported_metric = "inhibition at 10 µM"
observed_result = "> 90%"

[[record]]
molecule = "C=C(c1cc(F)ccc1F)C(C)N(C(=O)c1c(C(F)F)nn(C)c1F)C1CC1 (centres unmarked)"
system_name = "succinate dehydrogenase (Sus scrofa, UniProt A5GZW8+D0VWV4+Q007T0)"
reported_metric = "inhibition at 10 µM"
observed_result = "> 90%"

[[record]]
molecule = "C=C(CN(C(=O)c1c(C(F)F)nn(C)c1F)C1CC1)c1ccc(Br)cc1Br"
system_name = "succinate dehydrogenase (Sus scrofa, UniProt A5GZW8+D0VWV4+Q007T0)"
reported_metric = "inhibition at 10 µM"
observed_result = "> 90%"


# evaluate next
inhibition at 10 µM reading for C=C(c1ccccc1Cl)C(C)N(C(=O)c1c(C(F)F)nn(C)c1F)C1CC1 (centres unmarked) : > 90%
